Origin of measurements: ChEMBL document CHEMBL3885861

organism: Rattus norvegicus; assay: Open TG-GATES - Regimen: Daily Repeat; type: toxicity, organism-based, Sprague-Dawley; design: regimen Daily Repeat, gender Male, age 6 weeks; details: in vivo, po, 100 mg/kg, […], tissue Plasma, route gavage, dose level Low, time 14 day
observable: AST (IU/L)
Please give a number only; it is taken to be in IU/L.

O=C(O)c1cccnc1 [NIACIN] | 73.6
CC(C)(S)[C@@H](N)C(=O)O [PENICILLAMINE] | 61.6
CCN1CCCC1CNC(=O)c1cc(S(N)(=O)=O)ccc1OC (centres undefined) [SULPIRIDE] | 68.5

Now consider a different compound.
QUERY: What value of AST has been reported for the following compound? O=C(N[C@H](CO)[C@H](O)c1ccc([N+](=O)[O-])cc1)C(Cl)Cl [CHLORAMPHENICOL]
RESULT: 67.4
